- measurement description: basal HepG2 mitochondrial membrane potential changes, profiling panel, cell-based, JC-1 fluorescence, 24 h, 100 nL compound (AID 1167); also: test concentration not given here
- test context: higher = more signal
Would you mind sorting the entries by z-score according to these classes? lo (below -0.4), mid (-0.4 to below 0.3), hi (0.3 or more)

Q: Class label required: O=C(NN=C1C[C@@H](O)[C@@H](O)[C@@H]2[C@@H]3C(=O)N(c4cccc(Oc5ccccc5)c4)C(=O)[C@@H]3CC[C@H]12)OCc1ccccc1
Ans: hi

Q: Queued: CCOC(=O)[C@H](Cc1ccccc1)NC(=O)CCC1CC(OC(=O)NCCc2ccc(F)cc2)CC2(CCCC(COC(=O)NCC(c3ccccc3)c3ccccc3)O2)O1 (some centres undefined)
Ans: hi

Q: Queued: O=C1[C@H]2[C@H]3[C@H](O)[C@H](O)CC(=NOC[C@@H](O)COCc4ccco4)[C@H]3CC[C@H]2C(=O)N1C1CCCCC1
Ans: mid

Q: Queued: CCCNC(=O)OC[C@H]1O[C@H](CCON=CC[C@@H]2C=C[C@H](OC(C)=O)[C@@H](COC(C)=O)O2)C=C[C@@H]1Oc1ccc(OC)cc1
Ans: lo

Q: Queued: CCOC(=O)NN=C1C[C@@H](O)[C@@H](O)[C@@H]2[C@@H]3C(=O)N(C4CCCCC4)C(=O)[C@@H]3CC[C@@H]12
Ans: lo

Q: Queued: CC(=O)OC[C@H]1O[C@@H](ON=C[C@@H](C)[C@H](OCc2ccccc2)C(C)C)[C@H](OC(C)=O)[C@@H](OC(C)=O)[C@@H]1OC(C)=O
Ans: mid

Q: Queued: COc1ccc(COC(=O)NN=C2C[C@@H](O)[C@@H](O)[C@@H]3[C@@H]4C(=O)N(c5ccc(F)cc5F)C(=O)[C@@H]4CC[C@@H]23)cc1
Ans: hi

Q: Queued: COc1ccc(O[C@H]2C=C[C@@H](c3ccccc3)O[C@@H]2COC(=O)CCC(C)=NOC[C@@H](C)[C@H](OCc2ccccc2)C(C)C)cc1
Ans: hi

Q: Queued: C[C@@H](c1ccccc1)N1C(=O)[C@H]2[C@H]3[C@H](O)[C@H](O)CC(=NNC(=O)OCc4ccccc4)[C@H]3CC[C@H]2C1=O
Ans: lo

Q: Queued: COC(=O)[C@H]1COC(c2ccc(OCCCO)cc2)=N1
Ans: mid

Q: Queued: O=C1[C@H]2[C@H]3[C@H](O)[C@H](O)CC(=NOCc4ccccc4)[C@@H]3CC[C@H]2C(=O)N1Cc1ccccc1
Ans: mid

Q: Queued: CCCC=C(CCC)[C@@H](NC(=O)c1ccc(-c2ccccc2)cc1)c1ccc(C(=O)OC)cc1
Ans: lo

Q: Queued: C#C[C@@H]1Oc2ccccc2S(=O)(=O)N2CCC[C@H]12
Ans: lo

Q: Queued: O=C1O[C@@H](c2ccccc2)[C@@H](c2ccccc2)N2[C@@H](c3ccccc3OCCO)[C@]3(C(=O)Nc4ccc(C#CCCO)cc43)[C@@H](C(=O)O)[C@H]12
Ans: mid

This collection of values is drawn from PubChem BioAssay.
